# MEASUREMENT PROTOCOL: Half life in synthetic growth medium at 37 degC
MEASURE NAME: half-life

Ask | Reported half-life for "O=c1[nH]cc(F)c(=O)o1" : what is it?
Reply | 4 h
